Listed molecules paired with reported pKi
measured.on: Mu-type opioid receptor (Rattus norvegicus)
Sequence (P33535 whole entry): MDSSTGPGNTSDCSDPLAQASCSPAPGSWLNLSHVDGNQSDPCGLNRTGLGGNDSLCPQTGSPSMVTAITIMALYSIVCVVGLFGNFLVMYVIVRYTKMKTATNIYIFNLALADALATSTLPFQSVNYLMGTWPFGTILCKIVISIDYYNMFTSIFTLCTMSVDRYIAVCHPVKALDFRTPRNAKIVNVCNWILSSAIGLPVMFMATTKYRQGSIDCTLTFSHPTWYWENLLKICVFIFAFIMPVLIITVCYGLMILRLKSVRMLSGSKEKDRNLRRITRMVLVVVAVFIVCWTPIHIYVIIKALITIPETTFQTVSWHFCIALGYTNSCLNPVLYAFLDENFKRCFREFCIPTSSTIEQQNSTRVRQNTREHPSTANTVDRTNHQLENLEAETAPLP
Where a SMILES comes first, the peptide text is derived from it. [ ]: non-standard residue; d: D form. ξ: configuration not given here. Dmt = Cc1cc(O)cc(C)c1C[C@H](N)C(=O)O; ξTiq(1-COOH) = O=C(O)C1NCCc2ccccc21
pKi field: float, defined as -log10 of concentration (mol/L).

Guide cases for pKi, answers given:
NC(=O)[C@H](Cc1c[nH]c2ccccc12)NC(=O)[C@H](O)[C@H](Cc1ccccc1)NC(=O)[C@@H]1CCCN1C(=O)[C@@H](N)Cc1ccc(O)cc1 | 7.89
N=C(N)NCCC[C@H](NC(=O)[C@H](O)[C@H](Cc1ccccc1)NC(=O)[C@@H]1CCCN1C(=O)[C@@H](N)Cc1ccc(O)cc1)C(N)=O | 7.07
Cc1cc(O)cc(C)c1C[C@H](N)C(=O)N1CCc2ccccc2C1C(=O)N[C@@H](Cc1ccccc1)C(=O)N[C@@H](Cc1ccccc1)C(N)=O (some centres not stated) (H-[Dmt][ξTiq(1-COOH)]FF-NH2) | 8.30
NC(=O)C(Cc1ccc(F)cc1)NC(=O)[C@H](O)[C@H](Cc1ccccc1)NC(=O)[C@@H]1CCCN1C(=O)[C@@H](N)Cc1ccc(O)cc1 (some centres not stated) | 6.68
Cc1cc(O)cc(C)c1C[C@H](N)C(=O)N1CCc2ccccc2C1C(=O)N[C@@H](Cc1ccccc1)C(=O)N[C@@H](Cc1ccccc1)[C@H](O)C(N)=O (some centres not stated) | 7.92

Moving on to another molecule below.
Query :: I have this molecule here, `NC(=O)[C@H](O)[C@@H](Cc1ccccc1)NC(=O)[C@H](Cc1ccccc1)NC(=O)[C@@H]1CCCN1C(=O)[C@@H](N)Cc1ccc(O)cc1` , and I need its recorded pKi.
Result :: 6.35
